Hi there, I'd appreciate the recorded Predicted Hepatic Clearance (Pred. Cl.) for every entry that follows.
- assay.text: Microsomal stability, human liver microsomes (predicted hepatic clearance)
- cond: predicted from in vitro microsomal stability data
Give bare numbers, in mL/min/kg.

Solved cases (2 shown):
{"chemical.structure": "N#CCC1(Cn2c(Cc3ccc(-c4ccc(F)c(OCc5ccc(C#N)cc5F)n4)cc3F)nc3c(F)cc(C(=O)O)cc32)CC1", "value": 4}
{"chemical.structure": "COCCn1c(Cc2ccc(-c3cccc(OCc4cccc(C#N)c4)n3)cc2F)nc2ccc(C(=O)O)cc21", "value": 5.33}

Please turn your attention to the following entry.
Data request: Looking for the measured Predicted Hepatic Clearance (Pred. Cl.) of `CC(C)(CF)Cn1c(Cc2ccc(-c3cccc(OCc4ccc(C#N)cc4F)n3)c(F)c2)nc2ccc(C(=O)O)cc21` , can you help?
Data returned: 8.3
